- System: Klebsiella pneumoniae
- assay overview: Antibacterial activity against Klebsiella pneumoniae FNSST 011 after 18 to 24 hrs by two-fold broth microdilution assay
- Assay type: functional
property label: log10(MIC) (log10 of the value in mg/L)

• O/N=C/c1n(Cc2ccccc2)cc[n+]1Cc1ccccc1.[Br-] = 1.62
• O/N=C/c1nccn1Cc1ccccc1 = 1.40
• Cc1ccc(-n2ccnc2/C=N/O)cc1 = 2.00
• O/N=C/c1nccn1-c1ccc(F)cc1 = 2.00
• CO/N=C(\C(=O)N[C@@H]1C(=O)N2C(C(=O)O)=C(COC(C)=O)CS[C@H]12)c1csc(N)n1 = -0.30
• O/N=C/c1n(Cc2ccccc2)cc[n+]1-c1ccc(F)cc1.[Br-] = 0.19
• Cc1ccc(-[n+]2ccn(Cc3ccccc3)c2/C=N/O)cc1.[Br-] = 1.10
• O/N=C/c1nccn1-c1ccccc1 = 2.00
• O/N=C/c1n(Cc2ccccc2)cc[n+]1-c1ccccc1.[Br-] = 1.49

----------
- Test system: Aeromonas caviae
- assay overview: Antibacterial activity against […] expressing Aeromonas caviae isolate 258 after 18 to 24 hrs by two-fold broth microdilution assay
- Format: functional
Recorded measurements of MIC, one per entry
property label: MIC (µg/mL)

- C[C@@H](O)[C@H]1C(=O)N2C(C(=O)O)=C(SCCNC=N)C[C@H]12 [IMIPENEM ANHYDROUS]: 0.25
- O/N=C/c1n(Cc2ccccc2)cc[n+]1-c1ccc(F)cc1.[Br-]: 12.5
- CN(C)[C@@H]1C(O)=C(C(N)=O)C(=O)[C@@]2(O)C(O)=C3C(=O)c4c(O)cccc4[C@@](C)(O)[C@H]3C[C@@H]12: 64
- CC(C)(O/N=C(\C(=O)N[C@@H]1C(=O)N2C(C(=O)[O-])=C(C[n+]3ccccc3)CS[C@H]12)c1csc(N)n1)C(=O)O: 4

----------
- System: Aeromonas hydrophila
- assay overview: Antibacterial activity against TEM-1/SHV-12 expressing Aeromonas hydrophila isolate 268 after 18 to 24 hrs by two-fold broth microdilution assay
- Assay type: functional
compounds and their reported MIC
property label: MIC (µg/mL)

• CC(C)(O/N=C(\C(=O)N[C@@H]1C(=O)N2C(C(=O)[O-])=C(C[n+]3ccccc3)CS[C@H]12)c1csc(N)n1)C(=O)O = 64
• C[C@@H](O)[C@H]1C(=O)N2C(C(=O)O)=C(SCCNC=N)C[C@H]12 [IMIPENEM ANHYDROUS] = 0.06
• NC[C@H]1O[C@H](O[C@H]2[C@H](O)[C@@H](O[C@H]3O[C@H](CO)[C@@H](O)[C@H](N)[C@H]3O)[C@H](N)C[C@@H]2N)[C@H](N)C[C@@H]1O = 16

----------
- System: Clostridium perfringens
- assay overview: Antibacterial activity against Clostridium perfringens FNSST 4999 assessed as diameter of zone of inhibition at 250 ug/disc after 24 hrs by disc diffusion method
- Assay type: functional
- conditions: FNSST 4999, 24 h, read-out: DIZ
Measured zone of inhibition at 250 µg/disc accompanies every entry in the list below.
property label: zone of inhibition at 250 µg/disc (mm)

• O/N=C/c1nccn1-c1ccc(F)cc1 = 8.6
• O/N=C/c1n(Cc2ccccc2)cc[n+]1-c1ccc(F)cc1.[Br-] = 11.4
• O/N=C/c1nccn1Cc1ccccc1 = 15.9
• Cc1ccc(-[n+]2ccn(Cc3ccccc3)c2/C=N/O)cc1.[Br-] = 20.7
• O/N=C/c1nccn1-c1ccccc1 = 16.5
• Cc1ccc(-n2ccnc2/C=N/O)cc1 = 12.6
• O/N=C/c1n(Cc2ccccc2)cc[n+]1Cc1ccccc1.[Br-] = 18.3
• O/N=C/c1n(Cc2ccccc2)cc[n+]1-c1ccccc1.[Br-] = 16.6

----------
- System: Aeromonas hydrophila
- assay overview: Antibacterial activity against TEM-1/SHV-12 expressing Aeromonas hydrophila isolate 268 after 18 to 24 hrs by two-fold broth microdilution assay
- Type: functional
property label: MIC

• O/N=C/c1n(Cc2ccccc2)cc[n+]1-c1ccc(F)cc1.[Br-] = 12.5 µg/mL
• C[C@@H](O)[C@H]1C(=O)N2C(C(=O)O)=C(S[C@@H]3CN[C@H](C(=O)N(C)C)C3)[C@H](C)[C@H]12 = 0.06 µg/mL
• CN(C)[C@@H]1C(O)=C(C(N)=O)C(=O)[C@@]2(O)C(O)=C3C(=O)c4c(O)cccc4[C@@](C)(O)[C@H]3C[C@@H]12 = 8 µg/mL
• O=C(O)c1cn(C2CC2)c2cc(N3CCNCC3)c(F)cc2c1=O = 2 µg/mL
• CO/N=C(\C(=O)N[C@@H]1C(=O)N2C(C(=O)O)=C(COC(C)=O)CS[C@H]12)c1csc(N)n1 = 256 µg/mL

----------
- Tested on: Aeromonas caviae
- assay overview: Antibacterial activity against […] expressing Aeromonas caviae isolate 258 after 18 to 24 hrs by two-fold broth microdilution assay
- Assay type: functional
property label: MIC (µg/mL)

• C[C@@H](O)[C@H]1C(=O)N2C(C(=O)O)=C(S[C@@H]3CN[C@H](C(=O)N(C)C)C3)[C@H](C)[C@H]12 = 0.125
• NC[C@H]1O[C@H](O[C@H]2[C@H](O)[C@@H](O[C@H]3O[C@H](CO)[C@@H](O)[C@H](N)[C@H]3O)[C@H](N)C[C@@H]2N)[C@H](N)C[C@@H]1O = 32
• O=C(O)c1cn(C2CC2)c2cc(N3CCNCC3)c(F)cc2c1=O = 0.5
• CO/N=C(\C(=O)N[C@@H]1C(=O)N2C(C(=O)O)=C(COC(C)=O)CS[C@H]12)c1csc(N)n1 = 258

----------
- Test system: Pseudomonas aeruginosa
- assay overview: Antibacterial activity against Pseudomonas aeruginosa FNSST 982 assessed as diameter of zone of inhibition at 250 ug/disc after 24 hrs by disc diffusion method
- Format: functional
- conditions: FNSST 982, 24 h, read-out: DIZ
property label: zone of inhibition at 250 µg/disc (mm)

* O/N=C/c1n(Cc2ccccc2)cc[n+]1-c1ccccc1.[Br-] | 14.9
* O/N=C/c1n(Cc2ccccc2)cc[n+]1Cc1ccccc1.[Br-] | 12.4
* O/N=C/c1nccn1-c1ccc(F)cc1 | 9.8
* O/N=C/c1nccn1-c1ccccc1 | 15.8
* Cc1ccc(-n2ccnc2/C=N/O)cc1 | 10.9
* O/N=C/c1n(Cc2ccccc2)cc[n+]1-c1ccc(F)cc1.[Br-] | 15.9
* Cc1ccc(-[n+]2ccn(Cc3ccccc3)c2/C=N/O)cc1.[Br-] | 20.6
* O/N=C/c1nccn1Cc1ccccc1 | 17.9

----------
Collected log10 MIC values appear next to each entry.
- Test system: Stenotrophomonas maltophilia
- assay overview: Antibacterial activity against […] expressing Stenotrophomonas maltophilia isolate 125 after 18 to 24 hrs by two-fold broth microdilution assay
- Type: functional
property label: log10 MIC (log10 of the value in µg/mL)

* CO/N=C(\C(=O)N[C@@H]1C(=O)N2C(C(=O)O)=C(COC(C)=O)CS[C@H]12)c1csc(N)n1 | 1.51
* O/N=C/c1n(Cc2ccccc2)cc[n+]1-c1ccc(F)cc1.[Br-] | 1.10
* C[C@@H](O)[C@H]1C(=O)N2C(C(=O)O)=C(S[C@@H]3CN[C@H](C(=O)N(C)C)C3)[C@H](C)[C@H]12 | 2.11
* CN(C)[C@@H]1C(O)=C(C(N)=O)C(=O)[C@@]2(O)C(O)=C3C(=O)c4c(O)cccc4[C@@](C)(O)[C@H]3C[C@@H]12 | 2.11
* NC[C@H]1O[C@H](O[C@H]2[C@H](O)[C@@H](O[C@H]3O[C@H](CO)[C@@H](O)[C@H](N)[C@H]3O)[C@H](N)C[C@@H]2N)[C@H](N)C[C@@H]1O | 0.90
* CC(C)(O/N=C(\C(=O)N[C@@H]1C(=O)N2C(C(=O)[O-])=C(C[n+]3ccccc3)CS[C@H]12)c1csc(N)n1)C(=O)O | 2.11
* C[C@@H](O)[C@H]1C(=O)N2C(C(=O)O)=C(SCCNC=N)C[C@H]12 [IMIPENEM ANHYDROUS] | -0.92
